Origin of the recorded values: patent US8623912B2

Property: IC50; scope: individual compounds
- Test system: CCRF-CEM (human leukemia)
- assay.notes: Celltiter 96 cell proliferation assay (modified MTT method), CCRF-CEM
- Format: cell-based
- condition.info: 72 hours culture with compound, MTT, OD 570 nm, read-out: IC50 CCRF-CEM (human leukemia)

[
  {
    "compound": "CC(O)(C=CC1CC=CC(=O)O1)C(CC(O)C=CC=CC=CCO)OP(=O)(O)O (centres unmarked)",
    "target.under.test": "CCRF-CEM (human leukemia)",
    "IC50 [µM]": 10
  },
  {
    "compound": "C[C@@](O)(/C=C/[C@H]1CC=CC(=O)O1)C(C[C@@H](O)\\C=C/C=C\\C=C\\CO)OCP(=O)(O)O (some centres unmarked)",
    "target.under.test": "CCRF-CEM (human leukemia)",
    "IC50 [µM]": 14
  }
]
